molecular target: T1, Monkey 4-1BB extracellular region recombinant protein (his-tag) (monkey); assay: ELISA, coated monkey 4-1BB-his 200 ng/well; antibody 1.11 µg/ml
T1 construct: extracellular domain; also called Monkey4-1BB, his-tag
OBSERVABLE: absorbance at 450 nm
API note: the answer field is a bare number with no unit suffix.

{"columns": ["BINDER", "OBSERVABLE", "VALUE MEASURED"],
 "data": [
  ["137-12 VHH-hFc recombinant antibody (Fc fusion, VHH fragment inserted into vector pFclG with human IgG1 Fc tag, expressed in HEK293F; not shown: human IgG1 Fc tag of the eukaryotic expression vector pFclG) QVQLVESGGGLVHPGGSLRLSCAASGFTLDDSAIGWFRQAPGKEREGVSCRSRSGYMTKYADSVKGRFTISRYNANNTMYLQMNSLKPEDTAVYYCATTRRGYCSGYETKGVDYWGQGIQVTVSS", "absorbance at 450 nm", 0.423],
  ["137-39 VHH-hFc recombinant antibody (Fc fusion, VHH fragment inserted into vector pFclG with human IgG1 Fc tag, expressed in HEK293F; Preparation had non-specific bands, purity about 30%; not shown: human IgG1 Fc tag of the eukaryotic expression vector pFclG) QVQLVESGGGLVHVGESLTLSCVISGGSSNLYGIGWYRQAPGQERKLVAVLHNEHTTKYLDSVKGRFFVSGDNAKNTLYLHMNNVKVEDTAVYYCNSASGTLAGTGYFASVGPWGQGTLVTVSS", "absorbance at 450 nm", 0.286],
  ["137-18 VHH-hFc recombinant antibody (Fc fusion, VHH fragment inserted into vector pFclG with human IgG1 Fc tag, expressed in HEK293F; also called CD137-18; not shown: human IgG1 Fc tag of the eukaryotic expression vector pFclG) QVQLVESGGGLVHPGGSLRLSCAASGFIFSLYTMSWVRQAPGKGLEWVSDINSGGDSTDYADSVKGRFTISRDNAKSTLYLQMNSLKPEDTAVYYCAKDYPLGQREDYWGQGTQVTVSS", "absorbance at 450 nm", 1.19]
]}

Inquiry: # input binder: 137-36 VHH-hFc recombinant antibody (Fc fusion, VHH fragment inserted into vector pFclG with human IgG1 Fc tag, expressed in HEK293F; not shown: human IgG1 Fc tag of the eukaryotic expression vector pFclG) QVQLVESGGGLVQTGGSLTLSCVASGRRFEAYTIGWLRQAPGDLREGVGCIFGGTTFTGYDDSVKGRFTISRDTAKNTVYLRMNNLTSEDTATYYCAAEGRPGQIKGQHGCLTPSWYNYKGQGTQVTVSS ; wanted: its absorbance at 450 nm
Reply text: 0.456
